// data source = PubChem BioAssay (NCATS)

# EXPERIMENT SUMMARY: qHTS of pediatric cancer cell lines to identify multiple opportunities for drug repurposing: Primary screen for SJ-GBM2 cells (AID 1347091)
# COND: SJ-GBM2 viability, CellTiter-Glo luminescence, 48 h; series mostly up to 46 µM
Records with an inconclusive call do not appear. Active and inactive are the calls of the source. Calls come from the whole dose curve; as a rule, active = well fitted cell-killing curve with a large enough effect; inconclusive = small, poorly fitted or top-dose-only effect; inactive = no such curve, though single readings can be large or run the other way.
Your answer must be one of the following: yes (active), no (inactive)

Solved cases (3 shown):
{"COMPOUND": "C[C@@H](Cc1cc2c(c(C(N)=O)c1)N(CCCO)CC2)NCCOc1ccccc1OCC(F)(F)F", "CATEGORY": "no"}
{"COMPOUND": "COc1cccc2c1C(=O)c1c(O)c3c(c(O)c1C2=O)C[C@@](O)(C(=O)CO)C[C@H]3O[C@H]1C[C@H](N)[C@H](O)[C@H](C)O1", "CATEGORY": "yes"}
{"COMPOUND": "NC(=NCCCCCCN=C(N)N=C(N)Nc1ccc(Cl)cc1)N=C(N)Nc1ccc(Cl)cc1", "CATEGORY": "yes"}

q: Record request — test call for CCCCC(=O)O[C@]1(C(=O)CO)[C@@H](C)C[C@H]2[C@@H]3CCC4=CC(=O)C=C[C@]4(C)[C@@]3(F)[C@@H](O)C[C@@]21C
a: no

q: Hi, do you know how CCOc1cc2c(c(F)c1OCC)C(=N)N(CC(=O)c1cc(N3CCOCC3)c(OC)c(C(C)(C)C)c1)C2 came out in this test?
a: yes

q: Could you please tell me the result logged for C[C@H](O)[C@@H]1C(=O)N2C(C(=O)O)=C(S[C@@H]3CN[C@H](CNS(N)(=O)=O)C3)[C@@H](C)[C@@H]12 in this assay?
a: no

q: Just curious, what result did CC(=O)SCC(Cc1ccccc1)C(=O)NCC(=O)OCc1ccccc1 (stereo unspecified) get here?
a: yes

q: Per the assay record, what outcome was assigned to C[C@H](CCC(=O)O)[C@H]1CCC2C3C[C@H](O)[C@@H]4C[C@H](O)CC[C@]4(C)C3CC[C@@]21C (stereo partly specified) ?
a: no

----------
# EXPERIMENT SUMMARY: qHTS of pediatric cancer cell lines to identify multiple opportunities for drug repurposing: Confirmatory screen for BT-12 cells (AID 1347112);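 note: viability read after 48 h of compound exposure; nearly all actives have a fitted effect of over 55% in size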
# COND: BT-12 rhabdoid tumor cells, viability; series mostly up to 45.9 µM
Records with an inconclusive call do not appear. Calls of active or inactive are those of the source. Calls follow the shape of the dose curve; as a rule, active = well fitted cell-killing curve with a large enough effect; inconclusive = small, poorly fitted or top-dose-only effect; inactive = flat fitted curve, though single readings scatter.
Lab note: assign the record to one of active, inactive

Completed entries (count: 10):
{"COMPOUND": "CC(=O)SCC(Cc1ccccc1)C(=O)NCC(=O)OCc1ccccc1 (stereo not given)", "CATEGORY": "inactive"}
{"COMPOUND": "CC(=O)N1CCN(c2ccc(OCc3nn(C)c(C)c3-c3cccc4c(CCCOc5cccc6ccccc56)c(C(=O)O)n(Cc5cccnc5)c34)cc2)CC1", "CATEGORY": "inactive"}
{"COMPOUND": "Cn1cnc(=N)c2[nH]cnc21", "CATEGORY": "inactive"}
{"COMPOUND": "COc1ccc(C(C)=O)c(O)c1", "CATEGORY": "inactive"}
{"COMPOUND": "CCC(C=C[C@@H]1OC(=O)C=C[C@H]1C)=C[C@H](C)CC=CC(C)=C[C@@H](C)C(=O)[C@@H](C)[C@H](O)[C@@H](C)CC(C)=CC(=O)O", "CATEGORY": "active"}
{"COMPOUND": "COC(=O)[C@@H]1[C@H]2C[C@@H]3c4[nH]c5ccccc5c4CCN3C[C@@H]2CC[C@@H]1O", "CATEGORY": "inactive"}
{"COMPOUND": "CC(=O)[C@]1(O)Cc2c(O)c3c(c(O)c2[C@@H](O[C@H]2C[C@H](N)[C@@H](O)[C@H](C)O2)C1)C(=O)c1ccccc1C3=O", "CATEGORY": "active"}
{"COMPOUND": "CCN(CC)Cc1ccc2cc(COC(=O)Nc3ccc(C(=O)NO)cc3)ccc2c1", "CATEGORY": "inactive"}
{"COMPOUND": "CC1(C)O[C@@H]2C[C@H]3[C@@H]4CCC5=CC(=O)C=C[C@]5(C)[C@@H]4[C@@H](O)C[C@]3(C)[C@]2(C(=O)CO)O1", "CATEGORY": "inactive"}
{"COMPOUND": "C[C@@]12C(=O)OC(=O)[C@@]1(C)C1CCC2O1", "CATEGORY": "active"}

Would you kindly look at the next entry?
q: Which outcome was entered for the compound C=CCNC1=C2C[C@@H](C)C[C@H](OC)[C@@H](O)[C@@H](C)C=C(C)[C@H](OC(N)=O)[C@@H](OC)C=CC=C(C)C(=O)NC(=CC1=O)C2=O in this test?
a: inactive

----------
# Tested on: Zika virus NS2B-NS3 protease
# EXPERIMENT SUMMARY: Primary screen GU AMC qHTS for Zika virus inhibitors (AID 1347154); note: nearly all actives have a fitted effect of over 70% in size
# COND: Zika NS2B-NS3 unlinked protease, AMC fluorogenic substrate; series mostly up to 54.1 µM
Results filed as inconclusive are left out. Active and inactive are the calls of the source. The call rests on the fitted dose curve; in most records, active means well fitted inhibition curve with a large enough effect; inconclusive means small, poorly fitted or top-dose-only effect; inactive means flat fitted curve, though single readings scatter.
Pick from True = active, False = inactive when you respond.

Reference set (3 entries):
{"COMPOUND STRING": "CC(=O)OCC(=O)[C@@]1(O)CC[C@H]2[C@@H]3CCC4=CC(=O)CC[C@]4(C)[C@@H]3C(=O)C[C@@]21C", "SYSTEM UNDER TEST": "Zika virus NS2B-NS3 protease", "CATEGORY": "False"}
{"COMPOUND STRING": "CN[C@@H]1C[C@H]2O[C@@](C)([C@H]1OC)n1c3ccccc3c3c4c(c5c6ccccc6n2c5c31)C(=O)N[C@H]4O", "SYSTEM UNDER TEST": "Zika virus NS2B-NS3 protease", "CATEGORY": "True"}
{"COMPOUND STRING": "COc1cc(N2CCC(C(N)=O)CC2)ccc1Nc1nc(N)c(Cl)c(Nc2ccccc2S(=O)(=O)C(C)C)n1", "SYSTEM UNDER TEST": "Zika virus NS2B-NS3 protease", "CATEGORY": "False"}

q: Tell me the recorded outcome of this test for NC(=O)c1cccc(-c2cccc(OC(=O)NC3CCCCC3)c2)c1 .
a: False

----------
# EXPERIMENT SUMMARY: qHTS of pediatric cancer cell lines to identify multiple opportunities for drug repurposing: Primary screen for DAOY cells (AID 1347090); note: nearly all actives have a fitted effect of over 55% in size; note: potency is the fitted concentration of half-maximal effect
# COND: DAOY medulloblastoma viability, CellTiter-Glo luminescence, 48 h; series mostly up to 46 µM
Inconclusive results are not listed. Active and inactive are the calls of the source. Calls follow the shape of the dose curve; as a rule, active = well fitted cell-killing curve with a large enough effect; inconclusive = small, poorly fitted or top-dose-only effect; inactive = flat fitted curve, though single readings scatter.
PROPERTY MEASURED: Potency

{"MOLECULE": "Cn1cc(-c2ccc3ncc(Cc4ccc5ncccc5c4)n3n2)cn1", "Potency": "inactive"}
{"MOLECULE": "CC(C=CC=C(C)C=CC1=C(C)CCCC1(C)C)=CC=CC=C(C)C=CC=C(C)C=CC1=C(C)CCCC1(C)C", "Potency": "18.7 µM (active)"}
{"MOLECULE": "Cc1onc(-c2ccccc2)c1C(=O)N[C@@H]1C(=O)N2[C@@H](C(=O)O)C(C)(C)S[C@@H]12", "Potency": "inactive"}
{"MOLECULE": "CC(C)(O)Cn1c(NC(=O)c2ccc(-c3cn[nH]c3)s2)nc2cc(CN3CCOCC3)ccc21", "Potency": "2.35 µM (active)"}
{"MOLECULE": "CC(C)[C@H](CO)Nc1nc(Nc2cccc(Cl)c2)c2ncn(C(C)C)c2n1", "Potency": "18.7 µM (active)"}

q: Look up Potency: Cc1cc(-c2nnc3n2CCCCC3)c(C)n1-c1ccccc1
a: inactive

q: Fill in: Potency of O=[N+]([O-])c1cn2c(n1)OC[C@@H](OCc1ccc(OC(F)(F)F)cc1)C2 is ___
a: inactive

----------
# EXPERIMENT SUMMARY: Quantitative High-Throughput drug screen in 47 multiple myeloma cell lines against the NCATS MIPE library collection: KMS20_JCRB cell viability assay (AID 1918973); note: nearly all actives have a fitted effect of over 45% in size
# COND: CellTiter-Glo ATP, 48 h; series mostly up to 45.8 µM
Records with an inconclusive call do not appear. Calls of active or inactive are those of the source. Calls come from the whole dose curve; as a rule, active = well fitted cell-killing curve with a large enough effect; inconclusive = small, poorly fitted or top-dose-only effect, or effect the other way; inactive = no such curve, though single readings can be large or run the other way.
Choose the fitting class; nothing outside active, inactive is accepted.

Please review the following examples before continuing.
{"COMPOUND": "C=C(C)[C@@H]1CC[C@]2(C)CC[C@]3(C)[C@H](CC[C@@H]4[C@@]5(C)CC[C@H](O)C(C)(C)[C@H]5CC[C@]43C)[C@@H]12", "CATEGORY": "inactive"}
{"COMPOUND": "OCCNC1CCCc2c1[nH]c1ccc(-c3ccccc3)cc21 (stereo not drawn)", "CATEGORY": "active"}
{"COMPOUND": "COc1cc([C@@H]2c3cc4c(cc3[C@@H](O[C@@H]3O[C@@H]5CO[C@@H](c6cccs6)O[C@@H]5[C@H](O)[C@@H]3O)[C@H]3COC(=O)[C@H]23)OCO4)cc(OC)c1O", "CATEGORY": "active"}

q: Called result for O=C1NC(=O)C(=Cc2ccc3nccc(-c4ccncc4)c3c2)S1
a: active

q: Field: outcome | Entry: NC(=O)Nc1sc(-c2ccc(F)cc2)cc1C(N)=O
a: active
